- System: L1210 leukemia ip in BDF1 mice, survival T/C
- assayComment: NCI In Vivo Anticancer Drug Screen. Data for tumor model L1210 Leukemia (intraperitoneal) in B6D2F1 (BDF1) mice
- protocolConditions: endpoint: mean survival time; dose: 200.0 mg/kg/injection; schedule: Q01DX009 (ip); vehicle: saline; higher = longer survival
- Experimental: The antitumor activity of compounds was measured in mice bearing transplantable tumors. Survival or tumor size were measured and the results are expressed as the measurement made in the treated group (T) divided by the measurement made in the vehicle treated control group (C). The tumor model used in this assay is L1210 Leukemia (intraperitoneal) in B6D2F1 (BDF1) mice
Inconclusive results and toxic doses are left out.
Documented T/C across a set of compounds

Would you mind telling me what T/C value was observed for ClC1=C(Cl)C2(Cl)CCC1(Cl)C2Cl (stereo not drawn) ? 95 % of control

Also need CC[As](=O)(O)CC , thanks. 105 % of control

Also need C=CCNC(=S)Nc1cccc(C(C)O)c1 (stereo not drawn) , thanks. 112 % of control

----------
Documented T/C across a set of compounds
- Test system: L1210 leukemia ip in BDF1 mice, survival T/C
- assayComment: NCI In Vivo Anticancer Drug Screen. Data for tumor model L1210 Leukemia (intraperitoneal) in B6D2F1 (BDF1) mice
- protocolConditions: endpoint: mean survival time; dose: 100.0 mg/kg/injection; schedule: Q01DX001 (ip); vehicle: carboxymethylcellulose (CMC); higher = longer survival
Inconclusive results and toxic doses are left out.

Sample answers from the record:
INSERT INTO measurements (structuresmilesstring, readout, result) VALUES
  ('O=[N+]([O-])c1cccc([N+](=O)[O-])c1Cl', 'T/C', '114 % of control'),
  ('O=C(/C(=C/c1ccc(F)cc1)c1ccccc1)c1ccc(O)cc1', 'T/C', '92 % of control'),
  ('Brc1csnn1', 'T/C', '110 % of control');

Would you mind telling me what T/C value was observed for O=C(/C=C(\OB(F)F)c1ccccc1)c1ccccc1 ? 94 % of control

Also need N#CC(C#N)=C1c2ccccc2C(=O)c2ccccc21 , thanks. 104 % of control

Also need NC(=S)N/N=C/C=N/NC(N)=S , thanks. 91 % of control

Also need C1CC[C@@H]2NCCC[C@H]2C1 , thanks. 103 % of control

Also need O=C(Oc1ccccc1[N+](=O)[O-])Oc1ccccc1[N+](=O)[O-] , thanks. 96 % of control

----------
- System: L1210 leukemia ip in BDF1 mice, survival T/C
- assayComment: NCI In Vivo Anticancer Drug Screen. Data for tumor model L1210 Leukemia (intraperitoneal) in B6D2F1 (BDF1) mice
- protocolConditions: endpoint: mean survival time; dose: 100.0 mg/kg/injection; schedule: Q01DX001 (ip); vehicle: saline
Inconclusive results and toxic doses are left out. No stated cut-off is given here; in the data, active means T/C of 150% or more; inactive means T/C below 125%. Square brackets hold non-standard residues; d marks the D form. Peptide text beside a SMILES is read from it. * marks the point of attachment. ξ: configuration not given here. Boc = CC(C)(C)OC(=O)*; ξP = O=C(O)C1CCCN1
// allowed return values: t (active), f (inactive)

Look over these answered cases.
INSERT INTO assay_data (molecule, labelvalue) VALUES
  ('O=C1NC(=O)C(c2ccc(O)cc2)N1 (stereo unspecified)', 'f'),
  ('CC(=O)OC1OCC(COC(=O)c2ccc([N+](=O)[O-])cc2)C1OC(=O)c1ccc([N+](=O)[O-])cc1 (stereo unspecified)', 'f'),
  ('COc1ccccc1CC(=O)Oc1ccccc1', 'f'),
  ('O=C(O)/C(S)=C\c1ccc(Cl)cc1', 'f'),
  ('COC(=O)C1C2C(C)=CC(O)(CC2(C)C)C1C(=O)OC (stereo unspecified)', 'f'),
  ('c1ccc2sc(SSc3nc4ccccc4s3)nc2c1', 'f'),
  ('COC(=O)C1CCCN1C(=O)CNC(=O)OC(C)(C)C (stereo not drawn) (Boc-Gly-[ξP]-OMe)', 'f'),
  ('Cc1c(C)n(C2OC(CO)C(O)C2O)c(=O)[nH]c1=O (stereo unspecified)', 'f');

What did the test return for C1O[C@@H]1[C@@H]1CO1 ? t

Also need COc1cc(C=C2c3ccccc3-c3ccccc32)ccc1O , thanks. f

Also need CCC1(c2ccccc2)C2C(=O)NC(=O)C1C(=O)NC2=O (stereo unspecified) , thanks. f

Also need CCOC(=N)CCNS(=O)(=O)c1ccc(C)cc1 , thanks. f

Also need CC[CH2][Ge]([CH2]CC)([CH2]CC)[O][Ge]([CH2]CC)([CH2]CC)[CH2]CC , thanks. f

Also need Cl/C=C/CSc1ccccc1 , thanks. f

Also need Oc1ccc(Cl)cc1/C=N/N1CCN(/N=C/c2cc(Cl)ccc2O)CC1 , thanks. f

Also need Cc1ccc2c(C)c3ccc4ccccc4c3c[n+]2c1 , thanks. f
